# Tested on: MS2 coat protein
# procedure-text: apparent KD of MS2 coat protein; designed switch direction (-1 OFF switch, 1 ON switch): -1; higher = weaker reporter binding
# measurement-parameters: Eterna round: R95; input ligand: FMN 200 uM
Class True: apparent KD of MS2 coat protein at least 30 nM. Class False: apparent KD of MS2 coat protein below 30 nM.

GAUUAUGCGAGCUUUAGGGACAUGAGGAUCACCCAUGUUCGUCUUAUUAAUCUAGGUGCACUGACAUACCUAAAUCU [JMF 87] (puzzle: Sensor v3, turn-off variant 1)
False
UAGAGACAUGAGGAUCACCCAUGUGAGGAUAUAGAGGAAGAUUGCGAGAGGGAGAGGACUAGAAGGCACAGUGA [JR_Exclu1_Sub034] (puzzle: Exclusion 1)
True
GAUUAUGCGAGCUUUAGGGACAUGAGGAUCACCCAUGUUCGUCUUAUUGGUCUGAAUGCACUGACAUACCUAAAUCU [JMF 76] (puzzle: Sensor v3, turn-off variant 1)
False
CUGAGCAGACGGAGAUCCAACAUGAGGAUCACCCAUGUCUCAAAAGCUUUUUGCUUGUCUUAUCCUCCUCUGUUCAC [Esqutian] (puzzle: Sensor v3, turn-off variant 1)
False
GAUUAUGCGAGCUUUAGGGACAUGAGGAUCACCCAUGUUCGUCUUGUUGAUCUAGGUGCACUAACAUACCUAAAUCU [JMF 33] (puzzle: Sensor v3, turn-off variant 1)
False

Qu. // inclusive: apparent KD of MS2 coat protein at least 30 nM? input: ACAAGCUUUUUGUUCGUCUUAUACACUCCUAAUAAGACAACAUGAGGAUCACCCAUGUAACAAACACGAACUCAUGU [Sesor Array 7 - Jieux - Sensor v3, turn-off variant 2] (puzzle: Sensor v3, turn-off variant 2)
Ans. True

Qu. What about this sequence? AUGAGGAUAAGAAAGUGAAGAUAGAGCGUACCUUAUGGAACAUGAGGAUCACCCAUGUAGCUUUUUGCUCGUCUUAU [JR_SV3TOV2_Sub031] (puzzle: Sensor v3, turn-off variant 2)
Ans. False
